# PROTOCOL TEXT: small-molecule binders of probe aNOTCH3, primary screen, biochemical, small-molecule microarray, 635/667 nm fluorescence (AID 1120);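 further: probe is a biotin-tagged antibody raised against NOTCH3 rather than NOTCH3 protein; score merges spot fluorescence near 667 nm with spot signal to noise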
# CONDITION LABEL: higher = more signal
MEASUREMENT NAME: composite z-score

# COMPOUND, MEASUREMENT NAME, REPORTED
measured = [
    ("C=CCC(OC(C)=O)[C@@H]1[C@@H](N(Cc2ccc(-c3ccccc3)cc2)C(=O)Cc2ccc(F)cc2)c2cc(OCCCO)ccc2N1C(=O)c1ccc2ccccc2n1 (some centres undefined)", "composite z-score", 0.0653),
    ("COC(=O)C[C@@H]1C[C@H](C)[C@]2(O1)C(=O)N(Cc1ccccc1)c1ccc(NC(C)=O)cc12", "composite z-score", -0.116),
    ("C=CCC(OC(C)=O)[C@@H]1[C@@H](N(Cc2cc3ccccc3o2)C(=O)c2ccc(C)cc2)c2cc(OCCCO)ccc2N1C(=O)c1ccc2ccccc2c1 (some centres undefined)", "composite z-score", 0.0259),
    ("COC(=O)[C@@]1(Cc2ccccc2)[C@H]2c3cc(C(=O)N4CCCC4)n(Cc4ccc(C)o4)c3C[C@H]2CN1C(=O)c1ccccc1", "composite z-score", 0.415),
]

* * *

# PROTOCOL TEXT: small-molecule binders of probe aInhba, primary screen, biochemical, small-molecule microarray, 635/667 nm fluorescence (AID 1148);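 further: score merges 667nm spot fluorescence with signal-to-noise for antibody binding to printed compounds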
# CONDITION LABEL: higher = more signal
Quick rule: composite z-score of at least -0.004 means y, below that means n.

# SMILES STRUCTURE, LABEL VALUE
records = [
    ("CC(=O)Nc1cc(Br)ccc1C(=O)O", "y"),
    ("COC(=O)[C@@]1(Cc2ccc(F)cc2)[C@H]2c3cc(C(=O)N(C)C)n(CCc4ccccn4)c3C[C@H]2CN1C(=O)c1ccccc1", "y"),
    ("COCCOC(=O)N1C(=O)[C@@]2(c3cc(C#CCNC(N)=O)ccc31)[C@H](C(=O)N1CCN(c3ncccn3)CC1)[C@H]1C(=O)O[C@H](c3ccccc3)[C@H](c3ccccc3)N1[C@@H]2c1ccccc1OCCO", "y"),
    ("COc1ccc([Si](C)(C)[C@H]2[C@H](CCn3cc(CCO)nn3)O[C@@]3(C(=O)N(Cc4ccc(N5CCOC5=O)cc4)c4ccccc43)[C@@H]2C)cc1", "n"),
    ("CC(=O)NCCCC[C@@H]1NC(=O)[C@@H]2C[C@H](C(=O)NCCCCCCNC(=O)CS)[C@H](c3ccc(O)cc3)N2C1=O", "n"),
]

* * *

# Test system: PRMT1 (protein arginine N-methyltransferase 1)
# PROTOCOL TEXT: PRMT1 binders on small-molecule microarrays, primary screen, biochemical, small-molecule microarray, 635 nm fluorescence (AID 1088);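 further: binding of Prmt1 protein to compounds spotted on small-molecule microarray slides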
# CONDITION LABEL: small-molecule microarray binding, higher = more signal
Measured composite z-score of individual entries
MEASUREMENT NAME: composite z-score

# MOLECULE, SUBJECT OF TEST, MEASUREMENT NAME, REPORTED
data = [
    ("CCCCC=C[C@@H](NC(=O)c1ccco1)c1ccccc1", "PRMT1 (protein arginine N-methyltransferase 1)", "composite z-score", -0.568),
    ("CCCCCCc1nc(CCCc2cc3c(c(CCCCCC)n2)[Si](C(C)C)(C(C)C)OC3)cc2c1[Si](C(C)C)(C(C)C)OC2", "PRMT1 (protein arginine N-methyltransferase 1)", "composite z-score", -0.41),
    ("COc1ccc(C(=O)Nc2cccc(CN3C(=O)[C@]4(O[C@H](CC(=O)N5CCC[C@H]5CO)[C@@H]([Si](C)(C)c5ccc(OC)cc5)[C@@H]4C)c4ccccc43)c2)cc1", "PRMT1 (protein arginine N-methyltransferase 1)", "composite z-score", 1.38),
    ("CC1=C2[C@@H](CCc3ccccc3)OB(O)C[C@@H]2n2c(=O)n(-c3ccccc3)c(=O)n2C1", "PRMT1 (protein arginine N-methyltransferase 1)", "composite z-score", 1.02),
    ("COc1ccc(CCNC(=O)[C@@]2(c3ccc([N+](=O)[O-])cc3)CC(=O)N(CC34CC5CC(CC(C5)C3)C4)[C@@H]2c2ccc(CO)cc2)cc1", "PRMT1 (protein arginine N-methyltransferase 1)", "composite z-score", 1.37),
    ("Cc1ccc([C@H]2[C@H](C(=O)O)[C@H](Sc3ccccc3)[C@@H](C(C)C)N2S(=O)(=O)c2ccc(C)cc2)cc1", "PRMT1 (protein arginine N-methyltransferase 1)", "composite z-score", 1.03),
    ("CC=CC(O)C1C=CC2C(=O)N(c3ccccc3)C(=O)C2N1Nc1ccc(C(C)C)cc1 (stereo not given)", "PRMT1 (protein arginine N-methyltransferase 1)", "composite z-score", 1.53),
    ("O=C(CS)NCCCCCCNC(=O)[C@H]1C[C@H]2C(=O)N3CCC[C@H]3C(=O)N2[C@H]1c1cccc(OCCO)c1", "PRMT1 (protein arginine N-methyltransferase 1)", "composite z-score", 1.5),
    ("COc1c(C)cc(-c2cc3c(c(-c4ccc(Oc5ccccc5)cc4)n2)[Si](C(C)C)(C(C)C)OC3)cc1C", "PRMT1 (protein arginine N-methyltransferase 1)", "composite z-score", -0.871),
    ("CC(C)NC(=O)[C@@]1(Cc2ccccc2I)c2ccccc2C(=O)N(Cc2ccccc2)[C@H]1c1ccc(CO)cc1", "PRMT1 (protein arginine N-methyltransferase 1)", "composite z-score", 1.53),
    ("COCCCNC(=O)[C@@]1(C)c2ccccc2C(=O)N(Cc2cc(C(F)(F)F)cc(C(F)(F)F)c2)[C@H]1c1ccc(CO)cc1", "PRMT1 (protein arginine N-methyltransferase 1)", "composite z-score", 1.55),
    ("COCCOC(=O)N1C(=O)[C@@]2(c3ccccc31)[C@H](C(=O)NC[C@H](O)c1ccccc1)[C@H]1C(=O)O[C@H](c3ccccc3)[C@H](c3ccccc3)N1[C@@H]2c1ccc(OCCO)cc1", "PRMT1 (protein arginine N-methyltransferase 1)", "composite z-score", 1.54),
    ("CN1C(=O)C2C(C1=O)C1C=C(CCCO)C2C(c2cccs2)N1C (stereo not given)", "PRMT1 (protein arginine N-methyltransferase 1)", "composite z-score", -0.214),
    ("COc1ccc(C(O)C2C=CC3C(=O)N(c4ccccc4)C(=O)C3N2Nc2ccc([N+](=O)[O-])cc2)cc1OCc1ccccc1 (stereo not given)", "PRMT1 (protein arginine N-methyltransferase 1)", "composite z-score", 0.923),
    ("COC(=O)C[C@@H]1C[C@H](C)[C@]2(O1)C(=O)N(Cc1ccccc1)c1ccc(NC(C)=O)cc12", "PRMT1 (protein arginine N-methyltransferase 1)", "composite z-score", -0.509),
]

* * *

# SUBJECT OF TEST: Homeobox protein Hox-A13 (Mus musculus) (UniProt Q62424)
# Sequence (Q62424 whole entry, looked up): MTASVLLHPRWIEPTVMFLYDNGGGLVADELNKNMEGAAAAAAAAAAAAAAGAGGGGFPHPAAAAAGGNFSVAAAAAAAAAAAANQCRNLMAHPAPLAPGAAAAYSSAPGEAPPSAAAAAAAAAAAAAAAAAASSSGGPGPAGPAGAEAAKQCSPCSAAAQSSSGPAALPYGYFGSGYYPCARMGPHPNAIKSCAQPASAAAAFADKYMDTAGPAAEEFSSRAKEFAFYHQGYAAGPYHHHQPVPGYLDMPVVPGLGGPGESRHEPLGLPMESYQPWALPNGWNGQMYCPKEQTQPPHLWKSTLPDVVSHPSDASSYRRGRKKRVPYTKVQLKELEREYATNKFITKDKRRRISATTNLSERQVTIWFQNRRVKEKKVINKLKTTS
# PROTOCOL TEXT: inhibitors of HoxA13-DNA binding, primary screen, biochemical, fluorescence polarization, labeled oligonucleotide (AID 1185)
# CONDITION LABEL: 15 min, higher = more signal, called active from +8 up or from −8 down
MEASUREMENT NAME: z-score

# COMPOUND, REPORTED
measured = [
    ("CC(C)N1CC=CC23O[C@@H]4C=CCOC(=O)[C@@H]4[C@H]2C(=O)N(CCO)[C@@H]3C1=O (stereo not given in full)", -2.98),
    ("O=c1cccc(CCc2ccccc2)o1", -3.17),
    ("COCCOC(=O)N1C(=O)[C@@]2(c3cc(C#CCC(C(=O)OC)C(=O)OC)ccc31)[C@H](c1ccccc1OCCO)N1[C@H](c3ccccc3)[C@H](c3ccccc3)OC(=O)[C@H]1[C@@H]2C(N)=O", -1.36),
    ("C[C@H]1NC(=O)[C@H](Cc2ccccc2)NC(=O)[C@@]23C(=O)N[C@@H](Cc4ccccc4)C2[C@H](C)[C@@]2(C)O[C@H]2C3/C=C/C/C=C\\CNC1=O (stereo not given in full)", -5.77),
    ("Cc1ccc(S[C@]2(C(=O)NC3CC3)CC(=O)N(Cc3ccccc3)[C@@H]2c2ccc(CO)cc2)cc1", -2.47),
    ("C=CC[C@@]1(C(=O)NCC(O)CO)N=C(c2ccc(OCCCO)cc2)O[C@@H]1c1ccccc1N=[N+]=[N-] (stereo not given in full)", -3.62),
    ("C=CCC(OC(C)=O)[C@@H]1[C@@H](N(Cc2cccc3ccccc23)C(=O)c2cccc3ccccc23)c2cc(OCCCO)ccc2N1C(=O)c1ccc2ccccc2n1 (stereo not given in full)", -2.11),
    ("CCC(CC)C(O)C1C=CC2C(=O)N(c3ccccc3)C(=O)C2N1Nc1ccc(C#N)cc1 (stereo not given)", -1.39),
    ("O=C1c2ccccc2[C@@]2(Cc3ccccc3N(Cc3ccccc3)C2=O)[C@H](c2ccc(CO)cc2)N1C1CCCCC1", -1.21),
    ("CC(C)C(=C=CC[C@H](O)c1ccccc1OCCO)C[C@H](O)c1ccccn1", -4.79),
    ("COC(=O)[C@@]1(Cc2ccccc2)[C@H]2c3cc(C(=O)N4CCCC4)n(Cc4ccc(C)o4)c3C[C@H]2CN1C(=O)c1ccccc1", -4.62),
    ("COC(=O)[C@@]1(Cc2ccc(OC)cc2)[C@H]2c3cc(C(=O)N4CCCC4)n(Cc4cc(F)cc5c4OCOC5)c3C[C@H]2CN1C(=O)c1ccccc1", -6.08),
    ("CN(C)CCCCNC(=O)[C@H]1C[C@H]2C(=O)N[C@@H](Cc3ccccc3)C(=O)N2[C@H]1c1ccc(O)cc1", -0.0255),
    ("O=C1OCC=C[C@H]2OC34C=CCN(c5ccc(Cl)cc5)C(=O)[C@H]3N(CCCCCCO)C(=O)[C@@H]4[C@@H]12 (stereo not given in full)", -4.21),
    ("[N-]=[N+]=Nc1ccccc1C[C@]1(C(=O)NCCN2CCOCC2)N=C(c2ccc(OCCCO)cc2)O[C@H]1c1ccccc1", -5.89),
]

Data provenance is PubChem BioAssay.
